measured_on: HLA-A*0203 (human)
protocol_details: inhibition of 125I-labelled probe peptide binding to purified HLA, gel filtration
experimental_context: remark: other sources report otherwise
pIC50: −log10 of the molar value.
Here, each record is paired with measured pIC50 data.

binder: SLQCVSLHV (modifications not checked) [Peptide 1418.19 (HuK2.170.V9) …]
pIC50: 7.32
--
binder: HLLSNDMCARA (modifications not checked) [Peptide 1419.15 (HuK2.177) …]
pIC50: 6.60
--
binder: SVGCTGAVPV (modifications not checked) [Peptide 1418.35 (HuK2.11.V10) …]
pIC50: 6.81
